# pIC50 annotations
- measured.target: xanthine oxidase (XO) enzyme (bovine milk) (Bos taurus)
- Construct: 20 µL of 0.2 unit XO enzyme (bovine milk) in buffer; from tissue; host or cells: bovine milk
- method.description: In vitro xanthine oxidase (XO) assay, uric acid formation at 295 nm with xanthine as substrate
- Format: biochemical
- experimental.parameters: isolated compounds and controls; repeated three times; read-out: Xanthine Oxidase IC50
pIC50: −log10 of the molar value.
metric.name: pIC50

1) C[C@@H]1O[C@@H](OC[C@H]2O[C@@H](Oc3c(-c4ccc(O)c(O)c4)oc4cc(O)cc(O)c4c3=O)[C@H](O)[C@@H](O)[C@@H]2O)[C@H](O)[C@H](O)[C@H]1O [Compound 1, quercetin-3-O-rutinoside]
< 4.00
2) O=c1[nH]c(=O)c2c[nH]nc2[nH]1 [Oxypurinol, oxypurinol, reference compound]
4.55
3) O=c1c(O[C@@H]2O[C@H](CO)[C@@H](O)[C@H](O)[C@H]2O)c(-c2ccc(O)c(O)c2)oc2cc(O)cc(O)c12 [Compound 2, quercetin-3-O-β-D-glucopyranoside]
< 4.00

---

- measured.target: xanthine oxidase (XO) enzyme (bovine milk) (Bos taurus, UniProt P80457)
- Construct: 20 µL of 0.2 unit XO enzyme (bovine milk) in buffer; from tissue; host or cells: bovine milk
- Sequence (P80457 whole entry): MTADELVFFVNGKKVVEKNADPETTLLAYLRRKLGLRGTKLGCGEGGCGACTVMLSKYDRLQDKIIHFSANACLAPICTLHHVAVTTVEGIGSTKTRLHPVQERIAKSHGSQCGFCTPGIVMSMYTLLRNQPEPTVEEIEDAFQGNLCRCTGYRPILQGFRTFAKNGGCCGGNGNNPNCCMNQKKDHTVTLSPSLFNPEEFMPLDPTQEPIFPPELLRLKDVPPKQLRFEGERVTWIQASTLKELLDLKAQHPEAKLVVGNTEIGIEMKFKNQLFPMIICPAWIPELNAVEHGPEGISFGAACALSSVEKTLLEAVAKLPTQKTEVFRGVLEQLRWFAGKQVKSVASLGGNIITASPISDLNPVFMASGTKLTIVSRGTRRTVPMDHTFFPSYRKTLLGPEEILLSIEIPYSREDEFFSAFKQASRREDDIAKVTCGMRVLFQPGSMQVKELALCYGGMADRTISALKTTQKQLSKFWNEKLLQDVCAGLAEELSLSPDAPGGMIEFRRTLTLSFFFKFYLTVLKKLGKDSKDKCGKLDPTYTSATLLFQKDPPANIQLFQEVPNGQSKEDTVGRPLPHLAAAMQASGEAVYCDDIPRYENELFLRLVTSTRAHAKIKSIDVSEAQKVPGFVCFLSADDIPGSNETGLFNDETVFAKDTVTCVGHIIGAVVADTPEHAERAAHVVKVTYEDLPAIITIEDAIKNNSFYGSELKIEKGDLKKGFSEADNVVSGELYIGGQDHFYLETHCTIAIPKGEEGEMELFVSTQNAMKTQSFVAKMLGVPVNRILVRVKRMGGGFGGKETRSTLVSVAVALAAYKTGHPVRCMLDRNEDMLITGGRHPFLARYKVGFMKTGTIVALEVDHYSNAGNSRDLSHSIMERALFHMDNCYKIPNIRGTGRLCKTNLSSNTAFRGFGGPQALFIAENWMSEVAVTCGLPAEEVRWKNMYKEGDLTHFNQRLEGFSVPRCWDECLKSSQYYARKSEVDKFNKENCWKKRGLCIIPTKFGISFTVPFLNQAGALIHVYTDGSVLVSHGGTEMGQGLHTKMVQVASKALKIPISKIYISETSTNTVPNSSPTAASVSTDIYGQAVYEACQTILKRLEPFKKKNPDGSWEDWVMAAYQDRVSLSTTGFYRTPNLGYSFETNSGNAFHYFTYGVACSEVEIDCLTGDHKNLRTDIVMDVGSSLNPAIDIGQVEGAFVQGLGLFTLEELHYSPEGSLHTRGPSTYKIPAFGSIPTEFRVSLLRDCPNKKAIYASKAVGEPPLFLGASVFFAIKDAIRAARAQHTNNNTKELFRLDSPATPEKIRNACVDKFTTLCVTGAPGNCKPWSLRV
- method.description: In vitro xanthine oxidase (XO) assay, uric acid formation at 295 nm with xanthine as substrate
- Format: biochemical
- experimental.parameters: Xanthine Oxidase IC50, isolated compounds and controls; repeated three times
metric.name: IC50

1) CC1OC(Oc2c(-c3ccc(O)c(O)c3)oc3cc(O)cc(O)c3c2=O)C(O)C(O)C1O [Compound 4, quercetin-3-O-α-L-rhamnopyranoside]
> 100 µM
